target: Bacillus anthracis sortase enzyme (BaSrtA) (Bacillus anthracis, UniProt P0DPQ5)
Sequence (P0DPQ5 whole entry, looked up): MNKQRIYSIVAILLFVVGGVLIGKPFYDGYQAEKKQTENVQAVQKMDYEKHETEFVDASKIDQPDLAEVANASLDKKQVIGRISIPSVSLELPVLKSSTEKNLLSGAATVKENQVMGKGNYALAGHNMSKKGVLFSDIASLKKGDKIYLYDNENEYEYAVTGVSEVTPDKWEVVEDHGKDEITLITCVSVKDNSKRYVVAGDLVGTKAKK
pKi: −log10 of the molar value.
assay-metric: pKi

smi	assay-metric	endpoint-result
CC1=NN(c2ccccc2)C(=S)/C1=C/Nc1c(Br)cc(Br)cc1Br	pKi	5.77

* * *

biological target: S. aureus SrtA (Staphylococcus aureus); experiment: FRET assay of SrtA-catalyzed hydrolysis of Abz-LPETG-Dap(Dnp); IC50 / Ki app; details: read-out: Ki app (apparent dissociation constant of enzyme-inhibitor complex, Morrison's equation), S. aureus SrtA
Sequence (Q2FV99 60-206): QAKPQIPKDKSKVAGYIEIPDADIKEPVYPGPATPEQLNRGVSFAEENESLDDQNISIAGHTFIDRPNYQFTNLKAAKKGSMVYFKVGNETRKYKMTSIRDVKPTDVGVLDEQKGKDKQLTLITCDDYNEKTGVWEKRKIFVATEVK
pKi: −log10 of the molar value.

smi	pKi
CC1=NN(c2ccccc2)C(=S)/C1=C/Nc1c(Br)cc(Br)cc1Br	6.52
CCSc1c(S)cnn(-c2ccccc2)c1=O	5.85

Entry source: patent US20120149710A1
